Values compiled from paper doi:10.1101/2024.10.12.618019v1.

study target: UniProt:P21917
Sequence (P21917 whole entry): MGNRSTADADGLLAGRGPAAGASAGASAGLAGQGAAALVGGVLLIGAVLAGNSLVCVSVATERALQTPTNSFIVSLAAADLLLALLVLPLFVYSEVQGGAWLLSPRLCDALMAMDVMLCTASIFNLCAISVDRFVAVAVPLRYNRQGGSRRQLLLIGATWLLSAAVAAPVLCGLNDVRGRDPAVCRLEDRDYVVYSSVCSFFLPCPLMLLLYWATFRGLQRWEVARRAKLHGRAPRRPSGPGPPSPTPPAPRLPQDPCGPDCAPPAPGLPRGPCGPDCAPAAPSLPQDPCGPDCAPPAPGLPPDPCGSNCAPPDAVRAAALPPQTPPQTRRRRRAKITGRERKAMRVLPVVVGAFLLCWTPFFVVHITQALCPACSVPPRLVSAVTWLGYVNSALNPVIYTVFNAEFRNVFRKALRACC
In plain terms, low Ki, meaning strictly below 2000 nM, gives t, and everything else gives f.

compound: Cc1cc(-c2cc(F)c(CNC3Cc4ccccc4C3)c(F)c2)cc(-c2ncn[nH]2)c1 [4A]
answer label: t

compound: Cc1cc(-c2ccc(CNC3Cc4ccccc4C3)c(F)c2)cc(-c2ncn[nH]2)c1 [5A]
answer label: f

compound: Cc1cc(C(N)=O)cc(-c2cc(F)c(CNC3Cc4ccccc4C3)c(F)c2)c1 [1A]
answer label: t

compound: Cc1cc(C(N)=O)cc(-c2ccc(CNC3Cc4ccccc4C3)cc2)c1 [3A]
answer label: t

compound: Cc1cc(C(N)=O)cc(-c2ccc(CNC3Cc4ccccc4C3)c(F)c2)c1 [2A]
answer label: t

compound: Cc1cc(-c2ccc(CNC3Cc4ccccc4C3)cc2)cc(-c2nc[nH]n2)c1 [6A]
answer label: t

###

Form: system (SERT (Homo sapiens, UniProt P31645)), quantity (Ki), values below.
metric: Ki

smiles text: Cc1cc(-c2ccc(CNC3Cc4ccccc4C3)cc2)cc(-c2nc[nH]n2)c1
study target: SERT (Homo sapiens, UniProt P31645)
Sequence (P31645 whole entry): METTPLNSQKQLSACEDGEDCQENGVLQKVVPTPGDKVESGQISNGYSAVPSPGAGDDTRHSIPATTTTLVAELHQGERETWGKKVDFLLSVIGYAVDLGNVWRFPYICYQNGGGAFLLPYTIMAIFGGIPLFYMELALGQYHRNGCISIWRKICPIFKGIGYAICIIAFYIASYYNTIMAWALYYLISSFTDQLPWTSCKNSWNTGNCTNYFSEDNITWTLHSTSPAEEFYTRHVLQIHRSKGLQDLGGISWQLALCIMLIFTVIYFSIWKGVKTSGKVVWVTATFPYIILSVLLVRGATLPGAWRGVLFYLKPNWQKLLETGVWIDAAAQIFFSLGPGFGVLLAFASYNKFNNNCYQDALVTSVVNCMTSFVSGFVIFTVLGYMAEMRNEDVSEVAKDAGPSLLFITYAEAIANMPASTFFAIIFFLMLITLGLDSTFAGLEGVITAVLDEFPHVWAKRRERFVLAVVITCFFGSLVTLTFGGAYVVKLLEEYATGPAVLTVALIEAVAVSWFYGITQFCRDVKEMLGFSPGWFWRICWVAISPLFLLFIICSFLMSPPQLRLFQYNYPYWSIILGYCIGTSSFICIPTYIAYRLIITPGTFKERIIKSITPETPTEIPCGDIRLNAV
result: 130 nM
--
smiles text: Cc1cc(-c2cc(F)c(CNC3Cc4ccccc4C3)c(F)c2)cc(-c2ncn[nH]2)c1
study target: SERT (Homo sapiens, UniProt P31645)
result: 334 nM
--
smiles text: Cc1cc(C(N)=O)cc(-c2ccc(CNC3Cc4ccccc4C3)c(F)c2)c1
study target: SERT (Homo sapiens, UniProt P31645)
result: 174 nM
--
smiles text: Cc1cc(-c2ccc(CNC3Cc4ccccc4C3)c(F)c2)cc(-c2ncn[nH]2)c1
study target: SERT (Homo sapiens, UniProt P31645)
result: 116 nM
--
smiles text: Cc1cc(C(N)=O)cc(-c2ccc(CNC3Cc4ccccc4C3)cc2)c1
study target: SERT (Homo sapiens, UniProt P31645)
result: 310 nM
--
smiles text: Cc1cc(C(N)=O)cc(-c2cc(F)c(CNC3Cc4ccccc4C3)c(F)c2)c1
study target: SERT (Homo sapiens, UniProt P31645)
result: 523 nM

###

Form: system (H1 (Homo sapiens, UniProt P35367)), quantity (Ki), values below.
metric: Ki

smiles text: Cc1cc(-c2ccc(CNC3Cc4ccccc4C3)cc2)cc(-c2nc[nH]n2)c1
result: 1.45 µM
--
smiles text: Cc1cc(-c2cc(F)c(CNC3Cc4ccccc4C3)c(F)c2)cc(-c2ncn[nH]2)c1
result: > 10 µM
--
smiles text: Cc1cc(C(N)=O)cc(-c2ccc(CNC3Cc4ccccc4C3)cc2)c1
result: > 10 µM
--
smiles text: Cc1cc(C(N)=O)cc(-c2ccc(CNC3Cc4ccccc4C3)c(F)c2)c1
result: > 10 µM
--
smiles text: Cc1cc(-c2ccc(CNC3Cc4ccccc4C3)c(F)c2)cc(-c2ncn[nH]2)c1
result: 6.18 µM
--
smiles text: Cc1cc(C(N)=O)cc(-c2cc(F)c(CNC3Cc4ccccc4C3)c(F)c2)c1
result: > 10 µM

###

Form: system (D3 (Homo sapiens, UniProt P35462)), quantity (Ki), values below.

smiles text: Cc1cc(-c2ccc(CNC3Cc4ccccc4C3)cc2)cc(-c2nc[nH]n2)c1
study target: D3 (Homo sapiens, UniProt P35462)
Sequence (P35462 whole entry): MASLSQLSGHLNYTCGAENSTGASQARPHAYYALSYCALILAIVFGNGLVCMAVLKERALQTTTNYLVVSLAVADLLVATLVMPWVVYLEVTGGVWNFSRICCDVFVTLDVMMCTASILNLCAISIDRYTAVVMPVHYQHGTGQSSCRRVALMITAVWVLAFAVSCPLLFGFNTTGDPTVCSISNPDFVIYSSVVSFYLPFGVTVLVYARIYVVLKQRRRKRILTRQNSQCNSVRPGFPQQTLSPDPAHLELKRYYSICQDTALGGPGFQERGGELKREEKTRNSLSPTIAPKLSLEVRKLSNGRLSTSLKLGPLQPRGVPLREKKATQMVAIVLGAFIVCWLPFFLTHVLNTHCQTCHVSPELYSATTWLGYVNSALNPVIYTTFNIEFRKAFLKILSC
operator: >
Ki / nM: 10000
--
smiles text: Cc1cc(-c2cc(F)c(CNC3Cc4ccccc4C3)c(F)c2)cc(-c2ncn[nH]2)c1
study target: D3 (Homo sapiens, UniProt P35462)
operator: >
Ki / nM: 10000
--
smiles text: Cc1cc(C(N)=O)cc(-c2ccc(CNC3Cc4ccccc4C3)c(F)c2)c1
study target: D3 (Homo sapiens, UniProt P35462)
operator: =
Ki / nM: 748
--
smiles text: Cc1cc(C(N)=O)cc(-c2ccc(CNC3Cc4ccccc4C3)cc2)c1
study target: D3 (Homo sapiens, UniProt P35462)
operator: >
Ki / nM: 10000
--
smiles text: Cc1cc(-c2ccc(CNC3Cc4ccccc4C3)c(F)c2)cc(-c2ncn[nH]2)c1
study target: D3 (Homo sapiens, UniProt P35462)
operator: =
Ki / nM: 181
--
smiles text: Cc1cc(C(N)=O)cc(-c2cc(F)c(CNC3Cc4ccccc4C3)c(F)c2)c1
study target: D3 (Homo sapiens, UniProt P35462)
operator: =
Ki / nM: 466

###

study target: D2 (Homo sapiens, UniProt P14416)
Sequence (P14416 whole entry): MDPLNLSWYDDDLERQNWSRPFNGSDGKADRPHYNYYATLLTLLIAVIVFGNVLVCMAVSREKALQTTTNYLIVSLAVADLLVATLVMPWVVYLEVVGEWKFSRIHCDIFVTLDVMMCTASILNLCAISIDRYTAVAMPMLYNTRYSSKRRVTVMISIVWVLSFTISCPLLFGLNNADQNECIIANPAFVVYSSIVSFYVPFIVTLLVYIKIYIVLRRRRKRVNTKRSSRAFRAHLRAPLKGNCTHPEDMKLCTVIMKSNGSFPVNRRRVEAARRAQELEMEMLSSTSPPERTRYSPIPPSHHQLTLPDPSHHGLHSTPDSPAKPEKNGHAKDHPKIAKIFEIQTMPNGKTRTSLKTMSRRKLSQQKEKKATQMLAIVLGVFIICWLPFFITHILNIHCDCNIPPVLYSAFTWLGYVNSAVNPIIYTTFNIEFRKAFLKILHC
assay explanation: biochemical
# Ki per record follows

molecule: Cc1cc(C(N)=O)cc(-c2ccc(CNC3Cc4ccccc4C3)cc2)c1 [3A]
Ki: > 10 µM

molecule: Cc1cc(-c2ccc(CNC3Cc4ccccc4C3)cc2)cc(-c2nc[nH]n2)c1 [6A]
Ki: > 10 µM

molecule: Cc1cc(-c2ccc(CNC3Cc4ccccc4C3)c(F)c2)cc(-c2ncn[nH]2)c1 [5A]
Ki: > 10 µM

molecule: Cc1cc(C(N)=O)cc(-c2ccc(CNC3Cc4ccccc4C3)c(F)c2)c1 [2A]
Ki: > 10 µM

molecule: Cc1cc(-c2cc(F)c(CNC3Cc4ccccc4C3)c(F)c2)cc(-c2ncn[nH]2)c1 [4A]
Ki: > 10 µM

molecule: Cc1cc(C(N)=O)cc(-c2cc(F)c(CNC3Cc4ccccc4C3)c(F)c2)c1 [1A]
Ki: 6.53 µM

###

study target: NOP (Homo sapiens)
Sequence (P41146 whole entry): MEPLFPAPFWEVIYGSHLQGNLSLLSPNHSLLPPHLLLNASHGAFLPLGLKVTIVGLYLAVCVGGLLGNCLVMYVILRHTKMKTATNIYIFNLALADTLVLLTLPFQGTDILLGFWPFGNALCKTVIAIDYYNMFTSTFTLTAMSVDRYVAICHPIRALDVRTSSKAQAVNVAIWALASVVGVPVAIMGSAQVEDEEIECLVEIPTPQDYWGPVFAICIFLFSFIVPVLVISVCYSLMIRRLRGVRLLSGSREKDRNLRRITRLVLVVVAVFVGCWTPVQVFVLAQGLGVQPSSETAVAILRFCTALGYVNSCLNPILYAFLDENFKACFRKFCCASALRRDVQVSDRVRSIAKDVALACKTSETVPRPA

smiles text: Cc1cc(-c2ccc(CNC3Cc4ccccc4C3)c(F)c2)cc(-c2ncn[nH]2)c1
Ki: 0.56 µM

smiles text: Cc1cc(C(N)=O)cc(-c2ccc(CNC3Cc4ccccc4C3)cc2)c1
Ki: > 10 µM

smiles text: Cc1cc(-c2cc(F)c(CNC3Cc4ccccc4C3)c(F)c2)cc(-c2ncn[nH]2)c1
Ki: > 10 µM

smiles text: Cc1cc(C(N)=O)cc(-c2cc(F)c(CNC3Cc4ccccc4C3)c(F)c2)c1
Ki: > 10 µM

smiles text: Cc1cc(-c2ccc(CNC3Cc4ccccc4C3)cc2)cc(-c2nc[nH]n2)c1
Ki: 0.167 µM

smiles text: Cc1cc(C(N)=O)cc(-c2ccc(CNC3Cc4ccccc4C3)c(F)c2)c1
Ki: > 10 µM

###

study target: H4 (Homo sapiens)
Sequence (Q9H3N8 whole entry): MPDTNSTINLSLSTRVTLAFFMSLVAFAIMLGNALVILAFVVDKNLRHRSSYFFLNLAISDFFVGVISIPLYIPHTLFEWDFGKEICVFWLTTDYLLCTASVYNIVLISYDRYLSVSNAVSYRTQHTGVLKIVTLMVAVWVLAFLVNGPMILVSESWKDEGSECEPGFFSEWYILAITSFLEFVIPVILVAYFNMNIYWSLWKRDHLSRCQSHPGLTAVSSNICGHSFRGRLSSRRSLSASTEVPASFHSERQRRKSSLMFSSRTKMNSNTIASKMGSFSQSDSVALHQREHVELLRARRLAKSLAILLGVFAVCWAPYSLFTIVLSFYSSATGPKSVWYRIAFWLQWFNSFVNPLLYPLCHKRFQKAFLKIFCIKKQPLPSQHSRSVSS
pKi: −log10 of the molar value.
metric: pKi

smiles text: Cc1cc(-c2ccc(CNC3Cc4ccccc4C3)cc2)cc(-c2nc[nH]n2)c1
metric: pKi
result: < 5.00
--
smiles text: Cc1cc(-c2cc(F)c(CNC3Cc4ccccc4C3)c(F)c2)cc(-c2ncn[nH]2)c1
metric: pKi
result: < 5.00
--
smiles text: Cc1cc(C(N)=O)cc(-c2ccc(CNC3Cc4ccccc4C3)c(F)c2)c1
metric: pKi
result: < 5.00
--
smiles text: Cc1cc(C(N)=O)cc(-c2cc(F)c(CNC3Cc4ccccc4C3)c(F)c2)c1
metric: pKi
result: < 5.00
--
smiles text: Cc1cc(C(N)=O)cc(-c2ccc(CNC3Cc4ccccc4C3)cc2)c1
metric: pKi
result: < 5.00
--
smiles text: Cc1cc(-c2ccc(CNC3Cc4ccccc4C3)c(F)c2)cc(-c2ncn[nH]2)c1
metric: pKi
result: < 5.00

###

Form: system (5HT1D (Homo sapiens)), quantity (pKi), values below.
pKi: −log10 of the molar value.
metric: pKi

smiles text: Cc1cc(C(N)=O)cc(-c2ccc(CNC3Cc4ccccc4C3)c(F)c2)c1
study target: 5HT1D (Homo sapiens)
Sequence (P28221 whole entry): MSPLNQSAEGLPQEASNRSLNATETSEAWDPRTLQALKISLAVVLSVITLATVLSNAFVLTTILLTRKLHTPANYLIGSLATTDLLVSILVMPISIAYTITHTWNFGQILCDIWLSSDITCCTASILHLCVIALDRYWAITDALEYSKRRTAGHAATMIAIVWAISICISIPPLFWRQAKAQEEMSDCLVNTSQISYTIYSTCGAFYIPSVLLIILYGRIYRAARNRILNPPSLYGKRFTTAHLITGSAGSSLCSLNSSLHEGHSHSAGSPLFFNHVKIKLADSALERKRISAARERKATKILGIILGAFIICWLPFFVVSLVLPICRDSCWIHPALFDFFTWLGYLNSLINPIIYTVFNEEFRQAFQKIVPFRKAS
metric: pKi
operator: =
result number: 5.78

smiles text: Cc1cc(-c2ccc(CNC3Cc4ccccc4C3)cc2)cc(-c2nc[nH]n2)c1
study target: 5HT1D (Homo sapiens)
metric: pKi
operator: =
result number: 5.88

smiles text: Cc1cc(C(N)=O)cc(-c2ccc(CNC3Cc4ccccc4C3)cc2)c1
study target: 5HT1D (Homo sapiens)
metric: pKi
operator: <
result number: 5.00

smiles text: Cc1cc(-c2ccc(CNC3Cc4ccccc4C3)c(F)c2)cc(-c2ncn[nH]2)c1
study target: 5HT1D (Homo sapiens)
metric: pKi
operator: =
result number: 5.85

###

Form: system (5HT7A (Homo sapiens, UniProt P34969)), quantity (pKi), values below.
pKi: −log10 of the molar value.

smiles text: Cc1cc(-c2cc(F)c(CNC3Cc4ccccc4C3)c(F)c2)cc(-c2ncn[nH]2)c1
study target: 5HT7A (Homo sapiens, UniProt P34969)
Sequence (P34969 whole entry): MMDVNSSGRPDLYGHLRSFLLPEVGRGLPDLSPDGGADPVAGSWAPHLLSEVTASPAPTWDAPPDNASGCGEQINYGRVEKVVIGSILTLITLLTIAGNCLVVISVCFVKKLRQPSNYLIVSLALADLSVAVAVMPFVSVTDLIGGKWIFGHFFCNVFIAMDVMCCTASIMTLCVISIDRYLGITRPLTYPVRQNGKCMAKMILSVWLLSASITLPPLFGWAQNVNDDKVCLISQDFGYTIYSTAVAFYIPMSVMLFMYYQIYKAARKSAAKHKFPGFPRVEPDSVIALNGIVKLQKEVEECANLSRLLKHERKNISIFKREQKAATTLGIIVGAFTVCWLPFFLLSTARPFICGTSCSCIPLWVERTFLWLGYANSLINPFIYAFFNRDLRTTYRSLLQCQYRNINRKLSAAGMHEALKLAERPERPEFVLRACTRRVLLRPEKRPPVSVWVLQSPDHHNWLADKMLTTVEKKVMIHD
operator: <
pKi: 5.00
//
smiles text: Cc1cc(-c2ccc(CNC3Cc4ccccc4C3)c(F)c2)cc(-c2ncn[nH]2)c1
study target: 5HT7A (Homo sapiens, UniProt P34969)
operator: =
pKi: 6.15
//
smiles text: Cc1cc(-c2ccc(CNC3Cc4ccccc4C3)cc2)cc(-c2nc[nH]n2)c1
study target: 5HT7A (Homo sapiens, UniProt P34969)
operator: =
pKi: 6.13
//
smiles text: Cc1cc(C(N)=O)cc(-c2cc(F)c(CNC3Cc4ccccc4C3)c(F)c2)c1
study target: 5HT7A (Homo sapiens, UniProt P34969)
operator: <
pKi: 5.00
//
smiles text: Cc1cc(C(N)=O)cc(-c2ccc(CNC3Cc4ccccc4C3)c(F)c2)c1
study target: 5HT7A (Homo sapiens, UniProt P34969)
operator: =
pKi: 6.05
//
smiles text: Cc1cc(C(N)=O)cc(-c2ccc(CNC3Cc4ccccc4C3)cc2)c1
study target: 5HT7A (Homo sapiens, UniProt P34969)
operator: =
pKi: 6.01
